pIC50, human HSD1 (Homo sapiens): measured values
pIC50: −log10 of the molar value.
OBSERVED PROPERTY: pIC50

- STRUCTURE SMILES: "Cn1c2c(c(=O)n1-c1ccc(F)cc1)[C@H]1CC[C@]2(C)C1(C)C"
  OBSERVED PROPERTY: "pIC50"
  VALUE OBSERVED: 5.77
- STRUCTURE SMILES: "Cn1c2c(c(=O)n1-c1ccccc1F)[C@H]1CC[C@]2(C)C1(C)C"
  OBSERVED PROPERTY: "pIC50"
  VALUE OBSERVED: 6.54

* * *

- TARGET OR SYSTEM: human 11betaHSD1 (Homo sapiens, UniProt P28845)
- Sequence (P28845 whole entry): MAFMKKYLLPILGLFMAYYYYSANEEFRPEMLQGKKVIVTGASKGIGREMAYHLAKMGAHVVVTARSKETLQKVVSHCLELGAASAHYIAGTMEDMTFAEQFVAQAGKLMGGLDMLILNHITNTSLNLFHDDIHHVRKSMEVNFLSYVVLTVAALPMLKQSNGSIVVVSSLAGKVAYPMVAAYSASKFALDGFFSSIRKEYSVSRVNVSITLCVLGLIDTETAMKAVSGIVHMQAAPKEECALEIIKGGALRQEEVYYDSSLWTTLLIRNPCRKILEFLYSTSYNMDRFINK
Friendly reminder: IC50 below 30 nM is YES, at or above is NO.

- COMPOUND: "COc1ncccc1Cn1c2c(c(=O)n1-c1ccc(F)cc1F)[C@@H]1CC[C@@]2(C)C1(C)C [Example 113]"
  ASSIGNED CLASS: "NO"
- COMPOUND: "CC(C)c1cccc(-n2c(=O)c3c(n2C)[C@]2(C)CC[C@H]3C2(C)C)c1 [Example 75]"
  ASSIGNED CLASS: "YES"
- COMPOUND: "Cn1c2c(c(=O)n1-c1ccccc1F)[C@H]1CC[C@]2(C)C1(C)C [Example 12]"
  ASSIGNED CLASS: "YES"
- COMPOUND: "CC1(C)[C@@H]2CC[C@@]1(C)c1c2c(=O)n(-c2ccccc2)n1CCc1ccccc1 [Example 66]"
  ASSIGNED CLASS: "YES"
- COMPOUND: "Cn1c2c(c(=O)n1Cc1ccc(C(N)=O)cc1)[C@H]1CC[C@]2(C)C1(C)C [Example 39]"
  ASSIGNED CLASS: "NO"
- COMPOUND: "Cn1c2c(c(=O)n1Cc1ccc(F)cc1C(F)(F)F)[C@H]1CC[C@]2(C)C1(C)C [Example 37]"
  ASSIGNED CLASS: "YES"
- COMPOUND: "COc1ccc(Cn2c3c(c(=O)n2-c2ccc(F)cc2F)[C@H]2CC[C@]3(C)C2(C)C)cc1 [Example 99]"
  ASSIGNED CLASS: "YES"
- COMPOUND: "Cn1c2c(c(=O)n1-c1ccc(F)cc1)[C@H]1CC[C@]2(C)C1(C)C [Example 17]"
  ASSIGNED CLASS: "NO"
- COMPOUND: "CC(C)(C)c1ccc(Cn2c3c(c(=O)n2-c2ccc(F)cc2F)[C@H]2CC[C@]3(C)C2(C)C)cc1 [Example 98]"
  ASSIGNED CLASS: "YES"
- COMPOUND: "Cc1nc(Cn2c(=O)c3c(n2Cc2ccccc2)[C@@]2(C)CC[C@@H]3C2(C)C)cs1 [Example 150]"
  ASSIGNED CLASS: "NO"

From: patent US7622492B2
